test system: DeltatarO mutant; test: S. aureus survival, RN4220 and DeltatarO strains – OD600, teichoic acid synthesis inhibitors, primary screen (AID 463173); settings: S. aureus RN4220 wild type/DeltatarO growth, OD600, 18 h, screened at 18.75 µg/mL (by protocol)
Hit rate of the full screen: of about 52,000 compounds, about 4,300 (8.3%) were called active. Cut-off read from the data, not from the text of the source: active = survival mostly below about 52% (no sharp cut-off); inactive = mostly above about 56%. The sample as a whole holds a higher share of actives than the screen did.
Bench note: report the call from true (1) = active, false (0) = inactive

Here are 3 compounds together with their reported answers.
1) O=C(Nc1ccc(F)cc1F)C1CCCN1S(=O)(=O)c1cccc2nsnc12 (centres undefined)    false (0)
2) CCC(=O)Nc1ccc(-c2nnc3c4ccccc4c(C)nn23)cc1    false (0)
3) Nc1nc(OC(C(F)(F)F)C(F)(F)F)nc(OC(C(F)(F)F)C(F)(F)F)n1    true (1)

For `COc1ccccc1CNC(=O)c1ccc2c(c1)CCN2S(=O)(=O)c1ccc(Cl)cc1` , what call appears in the results of this test? false (0)

For `Nc1ccc2nc(SCCOc3ccccc3)sc2c1` , what call appears in the results of this test? false (0)

====

test system: DeltatarO mutant; assay: S. aureus survival, RN4220 and DeltatarO strains – OD600, teichoic acid synthesis inhibitors, primary screen (AID 463173); conditions: S. aureus RN4220 wild type/DeltatarO growth, OD600, 18 h, hits give low values, screened at 18.75 µg/mL (by protocol)
About 4,300 (8.3%) of roughly 52,000 compounds were called active. The sample as a whole holds a higher share of actives than the screen did.
Please note: survival exactly at 90% is No. Only values below 90% get Yes.

1) COc1cccc(-n2cc(C(=O)NCc3ccc(C)cc3)c3ccccc3c2=O)c1    Yes
2) CC(C)(C)c1ccc(OCCOCCn2c(-c3ccc(Cl)cc3)nc3ccccc3c2=O)cc1    No
3) O=C(N=Nc1c(O)[nH]c2ccccc12)C1C2CCCCC21 (configuration not stated)    No
4) Cc1ccc(NC(=O)Cn2nnc3sc4c(c3c2=O)CCCC4)c(C)c1    Yes
5) Cc1coc2c(C)c3oc(=O)c(CC(=O)N4CCCCC4)c(C)c3cc12    Yes
6) Cc1coc2c(C)c3oc(=O)c(CCC(=O)N4CCCCC4)c(C)c3cc12    Yes
7) Cc1ccc(C)c(OCCn2c(-c3ccc(Cl)cc3)nc3ccccc3c2=O)c1C    Yes
8) CCOc1ccc(OCCOCCn2c(-c3ccc(Cl)cc3)nc3ccccc3c2=O)cc1    Yes

Below 90% on survival? Entry `O=c1c2c3c(sc2nnn1CCCCOc1ccc(Cl)cc1)CCCC3` No

Below 90% on survival? Entry `CC(C)OC(=O)c1ccc(Cn2nnc3sc4c(c3c2=O)CCCC4)cc1` Yes

====

test system: DeltatarO mutant; assay: S. aureus survival, RN4220 and DeltatarO strains – OD600, teichoic acid synthesis inhibitors, primary screen (AID 463173); details: S. aureus RN4220 wild type/DeltatarO growth, OD600, 18 h, hits give low values, screened at 18.75 µg/mL (by protocol)
About 4,300 (8.3%) of roughly 52,000 compounds were called active. The entries come from a sample that favours actives as a whole.
measurementType: survival (%)
Field format: number, assumed %, no unit text.

Retrieve survival measured for `Cc1cc(SCC(=O)Nc2nsc(-c3ccc(C(C)(C)C)cc3)n2)nc2ccccc12` and print it. 13

Retrieve survival measured for `Cc1ccc(-c2nc(NC(=O)CSc3cc(C)c4ccccc4n3)ns2)cc1` and print it. 65

Retrieve survival measured for `Cc1ccc(-c2nc(NC(=O)CSc3ccc4ccccc4n3)ns2)cc1` and print it. 77

====

test system: DeltatarO mutant; assay: S. aureus survival, RN4220 and DeltatarO strains – OD600, teichoic acid synthesis inhibitors, primary screen (AID 463173); details: S. aureus RN4220 wild type/DeltatarO growth, OD600, 18 h, hits give low values, screened at 18.75 µg/mL (by protocol)
Screen size: about 52,000 compounds; about 4,300 (8.3%) were called active. The full list was thinned out, with actives kept by preference.
Please note: survival exactly at 80% is N. Only values below 80% get Y.

Here are 3 compounds together with their reported answers.
1. CC(=O)c1cccc(NC(=O)C2=CC(c3ccc4c(c3)OCO4)=NS(=O)(=O)N2C)c1    Y
2. CCN(CCCNC(=O)CN1N=C(c2ccccc2)CCC1=O)c1ccccc1    Y
3. Cc1ccc2c(c1)N(C(=O)Nc1cccc3c1CCCC3)CC(C)O2 (centres undefined)    Y

Below 80% on survival? Entry `CCCCN(CCCNC(=O)CN1N=C(c2ccccc2)CCC1=O)c1ccccc1` N

Below 80% on survival? Entry `CCCCN(CCCNC(=O)CN1N=C(c2ccc(C)cc2)CCC1=O)c1ccccc1` N

Below 80% on survival? Entry `Cc1ccc(C2=NN(CC(=O)NCCCN(CC(C)C)CC(C)C)C(=O)CC2)cc1` N

Below 80% on survival? Entry C=CCNC1CCS(=O)(=O)C1 (centres undefined) N

Below 80% on survival? Entry `Cc1cc(OCC(=O)Nc2cc(-c3nc4ncccc4o3)ccc2C)ccc1Cl` Y

Below 80% on survival? Entry `CC(C)(C)OC(=O)N1CCC(c2c(C(=O)N3CCN(c4ccccc4F)CC3)cnn2C(C)(C)C)CC1` Y

Below 80% on survival? Entry `O=C(c1ccc(F)cc1)c1cn(Cc2ccccc2F)c2cc3c(cc2c1=O)OCCO3` N

Below 80% on survival? Entry `CCN(CCCNC(=O)CN1N=C(c2ccc(OC)cc2)CCC1=O)c1cccc(C)c1` N

Below 80% on survival? Entry `CC(C)c1ccc(OCC(=O)Nc2cc(-c3nc4ncccc4o3)ccc2Cl)cc1` N

Below 80% on survival? Entry C=CCNC(=O)C(C)N1CCN(C)CC1 (centres undefined) Y

Below 80% on survival? Entry `Cc1cc(-c2nc3ncccc3o2)ccc1NC(=O)COc1cc(C)c(Cl)c(C)c1` Y

====

tested on: DeltatarO mutant; experiment: S. aureus survival, RN4220 and DeltatarO strains – OD600, teichoic acid synthesis inhibitors, primary screen (AID 463173); details: S. aureus RN4220 wild type/DeltatarO growth, OD600, 18 h, hits give low values, screened at 18.75 µg/mL (by protocol)
About 4,300 (8.3%) of roughly 52,000 compounds were called active. The list comes from a sample in which actives are over-represented; it also holds close analogues and randomly drawn compounds.
Please note: survival exactly at 30% is Not satisfied. Only values below 30% get Satisfied.

Here are 2 compounds together with their reported answers.
1. COc1ccc(OCCn2cc(C(=O)C3CCCCC3)c3ccccc32)cc1    Satisfied
2. Cc1ccc(NC(=O)/C(C#N)=C/c2ccccc2Cl)cc1C    Not satisfied

Below 30% on survival? Entry Cc1cccc(NC(=O)C2CCCN(S(=O)(=O)c3ccc4c(c3)CCCC(=O)N4)C2)c1 (stereo not given) Not satisfied

Below 30% on survival? Entry `Cc1nn(C(=O)COc2ccccc2Br)c(C)c1Sc1ccccc1` Not satisfied

Below 30% on survival? Entry `Cc1ccccc1NC(=O)/C(C#N)=C/c1ccc(Cl)cc1Cl` Not satisfied

Below 30% on survival? Entry `COc1ccc(OCc2nnc(SCC(=O)N(C3CCCCC3)C3CCCCC3)o2)cc1` Not satisfied

Below 30% on survival? Entry `COc1cc(C(=O)Nc2ccc(NC(=O)c3ccc(C(C)(C)C)cc3)cc2)cc(OC)c1OC` Not satisfied

Below 30% on survival? Entry `Cc1ccc(OCCn2cc(C(=O)C3CCCCC3)c3ccccc32)cc1` Satisfied

Below 30% on survival? Entry `Cc1ccc(Cl)cc1NC(=O)/C(C#N)=C/c1c(C)n(Cc2ccccc2)c2ccccc12` Not satisfied

Below 30% on survival? Entry `O=C(c1cccs1)c1cn(CCOc2ccc(Cl)cc2)c2ccccc12` Not satisfied

====

test system: DeltatarO mutant; assay: S. aureus survival, RN4220 and DeltatarO strains – OD600, teichoic acid synthesis inhibitors, primary screen (AID 463173); settings: S. aureus RN4220 wild type/DeltatarO growth, OD600, 18 h, hits give low values, screened at 18.75 µg/mL (by protocol)
The campaign covered roughly 52,000 compounds. About 4,300 (8.3%) were called active. The full list was thinned out, with actives kept by preference.
Please note: survival exactly at 90% is condition not met. Only values below 90% get condition met.

1. O=C(NC1CC(=O)N(c2ccc(F)cc2)C1)C(c1ccccc1)c1ccccc1 (stereo not given)    condition not met
2. CCN(C(=O)CSc1nc2ccccc2nc1Cc1ccc(F)cc1)c1cccc(C)c1    condition met
3. COc1cccc(Cc2nc3ccccc3nc2SCC(=O)Nc2ccccc2F)c1    condition met
4. COc1cccc(Cc2nc3ccccc3nc2SCC(=O)Nc2cc(OC)ccc2OC)c1    condition met

Now take the following compound into account.
Below 90% on survival? Entry Cc1ccc(C(C(=O)NC2CCCCC2)N(C(=O)Cc2c[nH]c3ccccc23)C2CC2)o1 (stereo not given) condition not met

// provenance: PubChem BioAssay AID463173
